kon overview
molecular target: recombinant human ICAM1 (human, UniProt P05362 28-480, limits assumed); experiment: SPR (Biacore 8K), antibody captured, antigen injected
Sequence (P05362 28-480 limits assumed): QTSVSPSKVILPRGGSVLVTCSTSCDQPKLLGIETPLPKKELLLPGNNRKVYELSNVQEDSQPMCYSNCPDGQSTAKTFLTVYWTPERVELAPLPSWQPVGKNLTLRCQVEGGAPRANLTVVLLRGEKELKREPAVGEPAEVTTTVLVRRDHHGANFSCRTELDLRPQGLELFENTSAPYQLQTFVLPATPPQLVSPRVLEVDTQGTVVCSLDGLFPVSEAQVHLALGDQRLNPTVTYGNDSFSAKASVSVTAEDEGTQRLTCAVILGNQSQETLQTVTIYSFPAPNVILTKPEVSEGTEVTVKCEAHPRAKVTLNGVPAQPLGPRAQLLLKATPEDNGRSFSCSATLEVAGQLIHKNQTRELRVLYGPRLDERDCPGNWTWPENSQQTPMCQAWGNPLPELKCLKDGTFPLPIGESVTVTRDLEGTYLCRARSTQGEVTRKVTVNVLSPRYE
// return numeric value only (unit: M⁻¹ s⁻¹, not printed)

Answered cases to consult:
BINDER: 16E4 (antibody, human IgG1, kappa, V domains shown, Rabbit-human chimeric anti-ICAM1: rabbit VH and VL on human IgG1 and kappa constant regions) VH: QSVEESGGRLVTPGTPLTLTCTVSGFSLSSHAMGWVRQAPGKGLQYIGIIGSSGSTYYASWAKGRFTISKTSTTVDLRLTSPTTEDTATYFCVRDPYDSFGDAYRLWGPGTLVTVSS VL: AYDMTQTPASVEVAVGGTVTIKCQASQSIYSYCSWYQQKPGQRPKFLIYDASKLASGVPSRFKGSGSGTEFTLTISGMQSDDAATYYCQQAYSSSNVDNAFGGGTEVVVKR
ENDPOINT UNIT: M⁻¹ s⁻¹
kon: 237000
//
BINDER: Anti-ICAM1 G12 (antibody, human IgG1, lambda, V domains shown, Human IgG1 with a lambda light chain; also called anti-ICAM1 clone G12) VH: QVQLQESGGGLVQPGGSLRLSCAASGFTFSSYAMSWVRQAPGKGLEWVSAISGSGGSTYYADSVKGRFTISRDNSKNTLYLQMSSLRAEDTAFYYCANSAYTGGWYDYWGHGTLVTVSS VL: ASELTQDPAVSVALGQTVKITCQGDSLRTYYASWYQQRPGQAPVLVIYGENSRPSGIPDRFSGSSSGNTASLTITGAQAEDEADYYCNSRDSSGNHLRVFGGGTKLTVLG
ENDPOINT UNIT: M⁻¹ s⁻¹
kon: 272000

Input line: Which kon value belongs to 2E3 (antibody, human IgG1, kappa, V domains shown, Rabbit-human chimeric anti-ICAM1: rabbit VH and VL on human IgG1 and kappa constant regions) VH: QSVEESGGGLVKPGGTLTLTCTVSGFSLSSYAMGWVRQAPGKGLEYIGIIGSSGSTYYASWAKGRFTISKTSTTVDLKITSPTTEDTATYFCVRDPYDSFGDGYRLWGPGTLVTVSS VL: AYDMTQTPASVEVAVGGTVTIKCQASENIYRYLLWYQQKLGQRPSLLIYDASKLASGVPSRFKGSGSGTEFTLTISGVQSDDAATYYCQQAYSSSNVDNAFGGGTEVVVKR ?
Output line: 227000
